The values you see were collected from paper PMC6437269.

- System: E. coli MG1655 (MP100)
- Assay Comment: microbe, parasite or virus in culture
- Format: cell-based, Escherichia coli
- Applied Conditions: Escherichia coli, MG1655; Table 6; MP100; read-out: MIC
Measurement Kind: MIC
I'd appreciate it if you wrote the number followed by its unit.

Consider the following illustrative entries.
| Molecule | Tgt | Value Reported |
| --- | --- | --- |
| CO/N=C(\C(=O)N[C@@H]1C(=O)N2C(C(=O)O)=C(COC(C)=O)CS[C@H]12)c1csc(N)n1 | E. coli MG1655 (MP100) | 0.12 µg/mL |
| CO/N=C(\C(=O)N[C@@H]1C(=O)N2C(C(=O)O)=C(COC(N)=O)CS[C@H]12)c1ccco1 | E. coli MG1655 (MP100) | 8 µg/mL |
| CO[C@@]1(NC(=O)C(C(=O)O)c2ccsc2)C(=O)N2[C@@H](C(=O)O)C(C)(C)S[C@@H]21 (stereo partly shown) | E. coli MG1655 (MP100) | 8 µg/mL |

Problem: I have this molecule here, C[C@@H](O)[C@H]1C(=O)N2C(C(=O)O)=C(S[C@@H]3CN[C@H](C(=O)N(C)C)C3)[C@H](C)[C@H]12 , and I need its recorded MIC.
Result: 0.03 µg/mL

* * *

Measurement record for MP108 (MP100 transformed with p50579417_3_OXA-48-CAZ-AVI); quantity recorded: MIC.
I'd appreciate it if you wrote the number followed by its unit.

| Molecule | Value Reported |
| --- | --- |
| CO/N=C(\C(=O)N[C@@H]1C(=O)N2C(C(=O)O)=C(COC(C)=O)CS[C@H]12)c1csc(N)n1 | 0.25 µg/mL |
| C[C@@H](O)[C@H]1C(=O)N2C(C(=O)O)=C(SCCN=CN)C[C@H]12 | 0.25 µg/mL |
| CC(C)(O/N=C(\C(=O)N[C@@H]1C(=O)N2C(C(=O)[O-])=C(C[n+]3ccccc3)CS[C@H]12)c1csc(N)n1)C(=O)O | 32 µg/mL |
| C[C@@H](O)[C@H]1C(=O)N2C(C(=O)O)=C(S[C@@H]3CN[C@H](C(=O)Nc4cccc(C(=O)O)c4)C3)[C@H](C)[C@H]12 | 0.12 µg/mL |
| C[C@@H](O)[C@H]1C(=O)N2C(C(=O)O)=C(S[C@@H]3CN[C@H](C(=O)N(C)C)C3)[C@H](C)[C@H]12 | 0.06 µg/mL |
| C[C@@H](O)[C@H]1C(=O)N2C(C(=O)O)=C(S[C@@H]3CN[C@H](CNS(N)(=O)=O)C3)[C@H](C)[C@H]12 | 0.03 µg/mL |

Problem: Under MP108 (MP100 transformed with p50579417_3_OXA-48-CAZ-AVI): MIC value of CO[C@@]1(NC(=O)C(C(=O)O)c2ccsc2)C(=O)N2[C@@H](C(=O)O)C(C)(C)S[C@@H]21 (stereo partly drawn) ?
Result: 32 µg/mL

Problem: Under MP108 (MP100 transformed with p50579417_3_OXA-48-CAZ-AVI): MIC value of CO/N=C(\C(=O)N[C@@H]1C(=O)N2C(C(=O)O)=C(COC(N)=O)CS[C@H]12)c1ccco1 ?
Result: 8 µg/mL

Problem: Under MP108 (MP100 transformed with p50579417_3_OXA-48-CAZ-AVI): MIC value of CO/N=C(\C(=O)N[C@@H]1C(=O)N2C(C(=O)[O-])=C(C[N+]3(C)CCCC3)CS[C@H]12)c1csc(N)n1 [FEP, cefepime] ?
Result: 0.25 µg/mL
